Biological target: PI3Kδ (Homo sapiens, UniProt O00329)
Construct: purchased Merck Millipore
Sequence (O00329 whole entry): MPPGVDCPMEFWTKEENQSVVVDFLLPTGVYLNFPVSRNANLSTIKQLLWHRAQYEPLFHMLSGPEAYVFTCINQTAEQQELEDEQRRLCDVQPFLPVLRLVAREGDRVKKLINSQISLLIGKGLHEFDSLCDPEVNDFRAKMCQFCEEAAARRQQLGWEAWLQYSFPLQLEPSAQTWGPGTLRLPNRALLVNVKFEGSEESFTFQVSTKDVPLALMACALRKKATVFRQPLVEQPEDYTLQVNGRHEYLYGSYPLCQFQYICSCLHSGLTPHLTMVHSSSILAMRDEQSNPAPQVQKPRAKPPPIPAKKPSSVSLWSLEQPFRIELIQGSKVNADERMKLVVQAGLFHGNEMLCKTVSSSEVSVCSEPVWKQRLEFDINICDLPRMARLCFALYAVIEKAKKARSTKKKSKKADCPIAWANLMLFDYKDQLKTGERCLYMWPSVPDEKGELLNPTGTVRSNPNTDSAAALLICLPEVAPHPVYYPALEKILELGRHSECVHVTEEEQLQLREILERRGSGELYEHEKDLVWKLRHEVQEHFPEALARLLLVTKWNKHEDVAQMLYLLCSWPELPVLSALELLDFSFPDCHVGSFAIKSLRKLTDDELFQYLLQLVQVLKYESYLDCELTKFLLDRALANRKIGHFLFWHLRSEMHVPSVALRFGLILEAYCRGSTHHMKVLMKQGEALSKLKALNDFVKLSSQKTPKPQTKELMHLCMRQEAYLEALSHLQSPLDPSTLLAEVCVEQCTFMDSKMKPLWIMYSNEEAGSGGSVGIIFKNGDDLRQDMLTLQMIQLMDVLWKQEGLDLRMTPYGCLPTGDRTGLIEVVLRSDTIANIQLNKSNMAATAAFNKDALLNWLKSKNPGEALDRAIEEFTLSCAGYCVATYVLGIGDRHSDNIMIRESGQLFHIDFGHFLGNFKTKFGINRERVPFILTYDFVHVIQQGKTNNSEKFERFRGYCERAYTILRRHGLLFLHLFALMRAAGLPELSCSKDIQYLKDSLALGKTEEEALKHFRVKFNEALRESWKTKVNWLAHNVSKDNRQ
Sequence (P27986 whole entry, further chain): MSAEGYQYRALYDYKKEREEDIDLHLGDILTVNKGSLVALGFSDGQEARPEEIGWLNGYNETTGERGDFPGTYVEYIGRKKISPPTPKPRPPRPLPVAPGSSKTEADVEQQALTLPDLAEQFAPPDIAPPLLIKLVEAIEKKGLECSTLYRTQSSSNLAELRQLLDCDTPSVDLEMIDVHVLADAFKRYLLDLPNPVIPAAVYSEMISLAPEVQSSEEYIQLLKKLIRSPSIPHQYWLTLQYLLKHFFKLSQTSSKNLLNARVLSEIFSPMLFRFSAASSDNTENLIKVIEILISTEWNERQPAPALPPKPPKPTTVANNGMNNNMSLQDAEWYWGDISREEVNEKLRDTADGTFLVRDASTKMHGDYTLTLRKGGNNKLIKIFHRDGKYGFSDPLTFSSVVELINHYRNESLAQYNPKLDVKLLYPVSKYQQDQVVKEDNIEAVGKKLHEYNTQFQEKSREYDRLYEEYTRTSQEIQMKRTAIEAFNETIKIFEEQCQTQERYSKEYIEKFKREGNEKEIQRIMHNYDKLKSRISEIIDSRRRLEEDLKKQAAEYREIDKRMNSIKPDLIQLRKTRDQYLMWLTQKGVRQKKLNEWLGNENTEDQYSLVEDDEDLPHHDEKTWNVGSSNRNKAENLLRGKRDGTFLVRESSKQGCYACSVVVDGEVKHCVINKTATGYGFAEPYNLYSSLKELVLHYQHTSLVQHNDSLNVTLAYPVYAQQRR
Test: PI3K kinases inhibition in vitro (ADP-Glo), PI3Kδ
Type: biochemical
Conditions: averaged; recombinant kinase, 25° C., 1 h, PIP2 30 μM; read-out: PI3Kδ IC50
pIC50: −log10 of the molar value.
PROPERTY LABEL: pIC50

The recorded pIC50 for "CCc1nc2ccccc2n1-c1cc(N2CCOCC2)n2nc(CN3CCN(S(C)(=O)=O)CC3)cc2n1" is 6.00 to 7.00

---

Biological target: PI3Kδ (Homo sapiens)
Construct: purchased Merck Millipore
Test: PI3K kinases inhibition in vitro (ADP-Glo), PI3Kδ
Format: biochemical
pIC50: −log10 of the molar value.
pIC50 for assorted molecules

The recorded pIC50 for "c1cc(-c2cc(N3CCOCC3)n3nc(CN4CCN(C5CC5)CC4)cc3n2)c2cc[nH]c2c1" is > 7.00

The recorded pIC50 for "c1cc(-c2cc(N3CCOCC3)n3nc(CN4CCN(C5COC5)CC4)cc3n2)c2cc[nH]c2c1" is > 7.00

The recorded pIC50 for "CCNC(=O)NC1CCN(Cc2cc3nc(-c4cccc5[nH]ccc45)cc(N4CCOCC4)n3n2)CC1" is 6.00 to 7.00

---

IC50 for assorted molecules
Biological target: PI3Kδ (Homo sapiens)
Construct: purchased Merck Millipore
Assay: PI3K kinases inhibition in vitro (ADP-Glo), PI3Kδ
Assay type: biochemical
Conditions: averaged; recombinant kinase, 25° C., 1 h, PIP2 30 μM; read-out: PI3Kδ IC50

FC(F)c1nc2ccccc2n1-c1cc(N2CCOCC2)n2nc(CN3CC(N4CCOCC4)C3)cc2n1 [Example 64] : < 100 nM
CC(C)(C)N1CCN(C(=O)c2cc3nc(-c4cccc5[nH]ccc45)cc(N4CCOCC4)n3n2)CC1 [Example 70] : < 100 nM
CC(C)(O)C1CCN(Cc2cc3nc(-c4cnc(N)nc4)cc(N4CCOCC4)n3n2)CC1 [Example 18] : 100 to 1000 nM

The recorded IC50 for Cc1c(CN2CCN(C(C)(C)C)CC2)nn2c(N3CCOCC3)cc(-n3c(C(F)F)nc4ccccc43)nc12 [Example 68] is < 100 nM

The recorded IC50 for CCc1nc2ccccc2n1-c1cc(N2CCOCC2)n2nc(CN3CCC(N(C)C)CC3)cc2n1 [Example 43] is 100 to 1000 nM

The recorded IC50 for Cc1nc2ccccc2n1-c1cc(N2CCOCC2)n2nc(CN3CCC(C(C)(C)O)CC3)cc2n1 [Example 49] is 100 to 1000 nM

The recorded IC50 for CC(C)c1nc2ccccc2n1-c1cc(N2CCOCC2)n2nc(CN3CCN(C(C)(C)C)CC3)cc2n1 [Example 52] is 100 to 1000 nM

The recorded IC50 for CC(C)(O)C1CCN(Cc2cc3nc(-n4c(C5CC5)nc5ccccc54)cc(N4CCOCC4)n3n2)CC1 [Example 55] is 100 to 1000 nM

The recorded IC50 for CC(C)(C)N1CCN(Cc2cc3nc(-c4cnc(N)nc4)cc(N4CCOCC4)n3n2)CC1 [Example 17] is < 100 nM

The recorded IC50 for CN(C)C1CCN(Cc2cc3nc(-c4c(F)ccc5[nH]ccc45)cc(N4CCOCC4)n3n2)CC1 [Example 13] is < 100 nM

The recorded IC50 for CC(C)(C)N1CCN(Cc2cc3nc(-c4ccnc5[nH]ccc45)cc(N4CCOCC4)n3n2)CC1 [Example 32] is < 100 nM

The recorded IC50 for CC(C)(C)N1CCN(Cc2cc3nc(-c4ccc(N)nc4)cc(N4CCOCC4)n3n2)CC1 [Example 16] is < 100 nM

The recorded IC50 for O=C(C1CC1)N1CCN(Cc2cc3nc(-c4cccc5[nH]ccc45)cc(N4CCOCC4)n3n2)CC1 [Example 1] is < 100 nM
